Assay: Stability in simulated gastric fluid
Format: in vitro ADME
Details: 2 μM peptidomimetic, simulated gastric fluid pH 1.5, 37° C., 24 h
Starred links: 1 amine or outer side, 2 acyl side, 3 side chain; linkers in the order of their positions; H or OH if unused. Non-standard residues stand in square brackets, D forms with d. Residues, ends and D or L forms follow the SMILES beside them. ξ: configuration not given here. ξBip(2'-Et-4'-OMe) = CCc1cc(OC)ccc1-c1ccc(CC(N)C(=O)O)cc1; X1 = O=C(C(CCCc1ccc(C(F)(F)F)cc1F)N[*:1])[*:2]
In this section, each of the molecules is paired with its reported % degradation of peptidomimetics in 24 h when incubated with simulated gastric fluid.
MEASURED PROPERTY: % degradation of peptidomimetics in 24 h when incubated with simulated gastric fluid (%)

MOLECULE: CCc1cc(OC)ccc1-c1ccc(CC(NC(=O)[C@H](CC(=O)O)NC(=O)[C@H](CO)NC(=O)[C@@H](NC(=O)C(C)(Cc2ccccc2F)NC(=O)[C@@H](NC(=O)CNC(=O)C(CCC#N)NC(=O)C(C)(C)NC(=O)[C@@H](N)Cc2c[nH]cn2)[C@H](C)O)[C@H](C)O)C(=O)N(C)C(CCCc2ccccc2F)C(N)=O)cc1 (single isomer, unassigned)
TEST RESULT: 14
--
MOLECULE: CCc1cc(OC)ccc1-c1ccc(CC(NC(=O)[C@H](CC(=O)O)NC(=O)[C@H](CO)NC(=O)[C@@H](NC(=O)C(C)(Cc2ccccc2F)NC(=O)[C@@H](NC(=O)CNC(=O)[C@H](CC(C(F)(F)F)C(F)(F)F)NC(=O)C(C)(C)NC(=O)[C@@H](N)Cc2c[nH]cn2)[C@@H](C)O)[C@@H](C)O)C(=O)NC(CCCc2ccccc2)C(N)=O)cc1 (stereo partly drawn)
TEST RESULT: 100
--
MOLECULE: CCc1cc(OC)ccc1-c1ccc(CC(NC(=S)[C@H](CC(=O)O)NC(=O)[C@H](CO)NC(=O)[C@@H](NC(=O)C(C)(Cc2ccccc2F)NC(=O)[C@@H](NC(=O)CNC(=O)C(CCC#N)NC(=O)C(C)(C)NC(=O)[C@@H](N)Cc2c[nH]cn2)[C@H](C)O)[C@H](C)O)C(=S)NC(CCCc2ccccc2)C(N)=O)cc1 (single isomer, unassigned)
TEST RESULT: 00
--
MOLECULE: CCc1cc(OC)ccc1-c1ccc(CC(NC(=O)[C@H](CC(=O)O)NC(=O)[C@H](CO)NC(=O)[C@@H](NC(=O)[C@H](Cc2ccccc2)NC(=O)[C@@H](NC(=O)CNC(=O)[C@H](CCC(N)=O)NC(=O)[C@H](CO)NC(=O)[C@@H](N)Cc2c[nH]cn2)[C@@H](C)O)[C@@H](C)O)C(=O)NC(CCCc2ccc(C(F)(F)F)cc2F)C(N)=O)cc1 (stereo partly drawn) [compound 49] (H-HSQGTFTSD[ξBip(2'-Et-4'-OMe)][X1]-NH2)
TEST RESULT: 14
--
MOLECULE: CCc1cc(OC)ccc1-c1ccc(CC(NC(=O)[C@H](CC(=O)O)NC(=O)[C@H](CO)NC(=O)[C@@H](NC(=O)[C@H](Cc2ccccc2)NC(=O)[C@@H](NC(=O)CNC(=O)C(CCC#N)NC(=O)C(C)(C)NC(=O)[C@@H](N)Cc2c[nH]cn2)[C@@H](C)O)[C@@H](C)O)C(=O)NC(CCCc2cccc(Cl)c2)C(N)=O)cc1 (single isomer, unassigned)
TEST RESULT: 100
--
MOLECULE: CCc1cc(OC)ccc1-c1ccc(CC(NC(=O)[C@H](CC(=O)O)NC(=O)[C@H](CO)NC(=O)[C@@H](NC(=O)[C@H](Cc2ccccc2)NC(=O)[C@@H](NC(=O)CNC(=O)C(CCC#N)NC(=O)C(C)(C)NC(=O)[C@@H](N)Cc2c[nH]cn2)[C@@H](C)O)[C@@H](C)O)C(=O)NC(CCCc2ccc(F)cc2C(F)(F)F)C(N)=O)cc1 (single isomer, unassigned)
TEST RESULT: 100

From: patent US8883963B2
